Taken from patent US8530459B2.

The following compounds are shown together with reported solubility values.
- experimental.details: Water-solubility of pure porphyrin in distilled water
- Assay type: physicochemical
- details: thermodynamic from solid; 8-10 mg of pure porphyrin completely dissolved in 300 μL of distilled water; upper limit not determined; read-out: water-solubility (concentration)

- O=P(O)(O)OCCC(CCOP(=O)(O)O)c1c2nc(cc3ccc([nH]3)c(-c3ccc(Br)cc3)c3nc(cc4ccc1[nH]4)C=C3)C=C2 [14b]: > 20 mM
- O=C(O)COc1ccc(-c2c3nc(cc4ccc([nH]4)c(C(CCP(=O)(O)O)CCP(=O)(O)O)c4nc(cc5ccc2[nH]5)C=C4)C=C3)cc1 [17a]: > 20 mM

Attention now turns to another entry.
Quick note, solubility for O=P(O)(O)CCC(CCP(=O)(O)O)c1c2nc(cc3ccc([nH]3)c(-c3ccc(Br)cc3)c3nc(cc4ccc1[nH]4)C=C3)C=C2 [17b] landed at > 20 mM
